# Assay system: S-nitrosoglutathione reductase (GSNOR) (Homo sapiens, UniProt P11766)
# Construct: made in house; host or cells: E. coli
# Sequence (P11766 whole entry): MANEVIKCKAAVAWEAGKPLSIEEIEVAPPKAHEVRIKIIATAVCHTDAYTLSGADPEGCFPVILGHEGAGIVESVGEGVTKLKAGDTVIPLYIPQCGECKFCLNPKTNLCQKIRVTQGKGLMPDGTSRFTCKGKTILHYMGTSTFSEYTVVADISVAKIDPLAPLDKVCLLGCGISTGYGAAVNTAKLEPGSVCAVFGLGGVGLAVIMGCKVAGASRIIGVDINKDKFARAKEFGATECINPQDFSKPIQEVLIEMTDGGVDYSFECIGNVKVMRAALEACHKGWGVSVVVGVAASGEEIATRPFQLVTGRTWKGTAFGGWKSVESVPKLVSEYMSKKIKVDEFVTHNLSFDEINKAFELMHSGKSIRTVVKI
# Assay remarks: GSNOR assay (inhibition of GSNOR activity, NADH absorbance at 340 nm)
# Type: biochemical
# Test settings: Table 7; GSNOR inhibition, IC50 range class a/b/c; read-out: IC50
Items are presented alongside their recorded IC50.

>>> result("CCCCn1c(-c2ccc(O)cc2)ccc1-c1ccc(C(=O)O)s1")
"100 to 1000 nM"
>>> result("O=C(O)c1ccc(-c2ccc(-c3ccc(O)cc3)[nH]2)cc1")
"1000 to 10000 nM"
>>> result("O=C(O)c1ccc(-c2csc(-c3ccc(O)c(F)c3)n2)s1")
"< 100 nM"
>>> result("CC(C)CCCn1c(-c2ccc(O)cc2)ccc1-c1ccc(C(=O)O)cc1")
"< 100 nM"

Record COCCn1c(-c2ccc(O)cc2)ccc1-c1ccc(C(=O)O)s1 . Reported IC50: < 100 nM

Kindly note the recorded IC50 for CC(C)Cn1c(-c2ccc(O)cc2)ccc1-c1ccc(C(=O)O)cc1 , which is < 100 nM

Record O=C(O)c1ccc(-c2csc(-c3ccc(O)cc3)c2)s1 , field IC50: 100 to 1000 nM

Item: CCCCCCn1c(-c2ccc(O)cc2)ccc1-c1ccc(C(=O)O)cc1 | IC50: < 100 nM

Lookup result for O=C(O)c1ccc(-c2ncc(-c3ccc(O)cc3)s2)s1 ; measured IC50: 100 to 1000 nM

get_value(item= O=C(O)c1ccc(-c2ccc(-c3ccc(O)cc3)cc2)cc1 , readout=IC50) returns 100 to 1000 nM
